molecular target: Human truncated DNMT1(601-1600) (Homo sapiens (Human), UniProt P26358); test: DNMT1 Scintillation Proximity Assay (SPA) - Assay B; conditions: footnote b: DNMT1 truncate
Sequence (P26358 601-1600): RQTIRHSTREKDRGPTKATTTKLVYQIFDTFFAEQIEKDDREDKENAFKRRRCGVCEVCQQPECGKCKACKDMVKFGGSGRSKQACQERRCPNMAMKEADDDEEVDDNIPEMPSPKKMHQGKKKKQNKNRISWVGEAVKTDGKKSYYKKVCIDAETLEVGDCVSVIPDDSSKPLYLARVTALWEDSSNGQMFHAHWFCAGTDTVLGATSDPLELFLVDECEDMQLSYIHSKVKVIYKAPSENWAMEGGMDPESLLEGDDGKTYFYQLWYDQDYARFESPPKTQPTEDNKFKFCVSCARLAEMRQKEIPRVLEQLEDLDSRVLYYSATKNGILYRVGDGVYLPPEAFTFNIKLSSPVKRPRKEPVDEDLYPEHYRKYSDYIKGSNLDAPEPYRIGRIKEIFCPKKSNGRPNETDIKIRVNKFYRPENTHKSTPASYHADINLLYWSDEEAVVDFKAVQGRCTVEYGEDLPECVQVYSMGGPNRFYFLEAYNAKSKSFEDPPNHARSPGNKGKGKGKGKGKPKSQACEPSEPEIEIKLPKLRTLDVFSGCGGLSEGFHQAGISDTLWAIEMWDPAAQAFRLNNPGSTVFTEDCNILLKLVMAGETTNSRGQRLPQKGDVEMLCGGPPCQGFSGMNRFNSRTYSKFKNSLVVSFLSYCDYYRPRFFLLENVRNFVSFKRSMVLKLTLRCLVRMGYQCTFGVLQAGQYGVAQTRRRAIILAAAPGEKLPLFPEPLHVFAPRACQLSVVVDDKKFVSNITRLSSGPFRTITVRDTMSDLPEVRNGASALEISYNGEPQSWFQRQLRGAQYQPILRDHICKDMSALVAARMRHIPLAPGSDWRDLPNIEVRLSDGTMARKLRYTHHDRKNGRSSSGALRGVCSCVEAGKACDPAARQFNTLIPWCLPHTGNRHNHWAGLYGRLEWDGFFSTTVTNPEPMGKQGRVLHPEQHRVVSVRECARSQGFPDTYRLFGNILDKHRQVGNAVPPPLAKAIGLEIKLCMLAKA
pIC50: −log10 of the molar value.
ASSAY READOUT: pIC50

I: CCc1c(C#N)c(S[C@@H](C(N)=O)c2ccc(OC)cc2)nc(N2CC[C@H](O)C2)c1C#N [Reference compound 4, reference compound]
II: CCc1c(C#N)c(SC(C(N)=O)c2ccc(Cl)cc2)nc(N(C)C)c1C#N (centres unmarked) [Reference compound 3]
Decide: I or II , by lowest recorded pIC50. Mark your answer with the label of the selected entry.
II
(II: 6.20, I: 7.10)

====

assay: Rat pharmacokinetic study (oral bioavailability); format: in vivo; conditions: blood, non-fasted male Wistar Han rats, n=3/dose route, PO gavage vs 60 minute IV infusion, 5% DMA/15% Solutol
ASSAY READOUT: bioavailability (%)
Dear colleague, please return just the value in %, with no unit written.

Find the recorded bioavailability belonging to CCc1c(C#N)c(S[C@@H](C(N)=O)c2ccc(OS(C)(=O)=O)cc2)nc(N(C)C)c1C#N and report it.
40

====

Assay: Rat pharmacokinetic study (oral bioavailability)
Assay type: in vivo
Conditions: blood, non-fasted male Sprague-Dawley rats, n=2/dose route, PO gavage vs 60 minute IV infusion, 5% DMA/15% Solutol
Protocol: Pharmacokinetic Studies: All studies were conducted in accordance with the GSK Policy on the Care, Welfare and Treatment of Laboratory Animals and were reviewed either by the Institutional Animal Care and Use Committee at GSK or by the ethical review process at the institution where the studies were performed. […] Blood samples were collected serially at multiple time points from pre-dose through 24 hours post dose and the analytes were quantified by LC/MS/MS. […]
ASSAY READOUT: bioavailability (%)
Dear colleague, please return just the value in %, with no unit written.

Find the recorded bioavailability belonging to CCc1c(C#N)c(S[C@@H](C(N)=O)c2ccc(OC)cc2)nc(N2CC[C@H](O)C2)c1C#N [Reference compound 4, reference compound] and report it.
6.1

====

assay: physchem; details: FaSSIF buffer, pH 6.5, fassif, thermodynamic from solid
The reader will find reported solubility at 4 h values listed item by item below.

1) CCc1c(C#N)c(SC(C(=O)NP(=O)(O)O)c2ccc(OS(C)(=O)=O)cc2)nc(N(C)C)c1C#N (stereo not shown) [Example 3]; > 1000 µg/mL

Find the recorded solubility at 4 h belonging to CCc1c(C#N)c(S[C@@H](C(=O)NP(=O)(O)O)c2ccc(OS(C)(=O)=O)cc2)nc(N(C)C)c1C#N [Example 1] and report it.
> 1000 µg/mL

Find the recorded solubility at 4 h belonging to CCc1c(C#N)c(SC(C(N)=O)c2ccc(OS(C)(=O)=O)cc2)nc(N(C)C)c1C#N (racemic) [Example 4] and report it.
< 1 µg/mL

Find the recorded solubility at 4 h belonging to CCc1c(C#N)c(S[C@@H](C(N)=O)c2ccccc2)nc(N(C)C)c1C#N [Reference compound 1, reference compound] and report it.
< 1 µg/mL

Source: patent US11771711B2
